# System: P. aeruginosa ATCC BAA-3107 (SEN) and P. aeruginosa LESB58 (MDR)
# METHOD NOTES: Adaptive laboratory evolution (ALE), relative MIC of evolved lines
# Type: cell-based, Pseudomonas aeruginosa
# TEST CONTEXT: PA-SEN (Pseudomonas aeruginosa ATCC BAA 3107), evolved line 10 adapted to the named antibiotic
Parameter: Relative MIC (log10). Scope: all listed entries.
Lab note: jot down the number only; don't add units.

Here is how some compounds turned out for Relative MIC (log10).
O=c1ccc2ncc(=O)n3c2n1C[C@H]3CN1CCC(NCc2cc3c(cn2)OCCC3)CC1	1.806
Nc1nc(-n2cc(C(=O)O)c(=O)c3cc(F)c(N4CC(O)C4)c(Cl)c32)c(F)cc1F	3.311
CNC(C)C1CCC(N)C(OC2C(N)CC(N)C(OC3OCC(C)(O)C(NC)C3O)C2O)O1 (stereo not shown)	2.408

Attention now shifts to the item below.
QUERY: Write down the reported Relative MIC (log10) of CN(C)[C@@H]1C(O)=C(C(N)=O)C(=O)[C@@]2(O)C(O)=C3C(=O)c4c(O)c(NC(=O)CN5CCCC5)cc(F)c4C[C@H]3C[C@@H]12 , test system: P. aeruginosa ATCC BAA-3107 (SEN) and P. aeruginosa LESB58 (MDR).
RESULT: 1.505
